Reference source for all entries: BigSolDB 2.1

Conditions: in ethanol, 306.05 K

Mol smiles: CC(C)C1=CC2=CC[C@@H]3[C@](C)(CCC[C@@]3(C)C(=O)O)[C@H]2CC1
solubility (mole fraction): 0.0311

---

Conditions: in ethanol, 294.8 K
Parameter measured: solubility (mole fraction)

Mol smiles: CC(C)C1=CC2=CC[C@@H]3[C@](C)(CCC[C@@]3(C)C(=O)O)[C@H]2CC1
Parameter measured: solubility (mole fraction)
Result number: 0.0219

---

Settings: in ethanol, 288.7 K
Parameter measured: solubility (mole fraction)

Mol smiles: CC(C)C1=CC2=CC[C@@H]3[C@](C)(CCC[C@@]3(C)C(=O)O)[C@H]2CC1
Result: 0.0183

---

Conditions: in ethanol, 312.35 K

Mol smiles: CC(C)C1=CC2=CC[C@@H]3[C@](C)(CCC[C@@]3(C)C(=O)O)[C@H]2CC1
solubility (mole fraction): 0.0385

---

Conditions: in ethanol, 308.22 K
Parameter measured: solubility (mole fraction)

Mol smiles: CC(C)C1=CC2=CC[C@@H]3[C@](C)(CCC[C@@]3(C)C(=O)O)[C@H]2CC1
Parameter measured: solubility (mole fraction)
Result number: 0.0335

---

Conditions: in ethanol, 316.85 K

Mol smiles: CC(C)C1=CC2=CC[C@@H]3[C@](C)(CCC[C@@]3(C)C(=O)O)[C@H]2CC1
solubility (mole fraction): 0.0439
